- System: crabgrass, large
- procedure.summary: Test C preemergence
- Assay type: in vivo, Digitaria sanguinalis
- experimental.setup: preemergence, 31 g ai/ha; visual rating, scale 0 to 100 (0 no effect, 100 complete control), 13 to 15 days
outcome.measure: Crabgrass, Large plant response rating

CCOc1cc(C(=O)NC2CC2)nn1Cc1ccnc(OC(F)F)c1; 100
CCNC(=O)c1cc(CC)n(Cc2ccnc(C(F)(F)F)c2)n1; 98

Q: Which Crabgrass, Large plant response rating reading was recorded for the compound CCc1cc(C(=O)NOC(C)C)nn1Cc1ccnc(C(F)(F)F)c1 ?
A: 80

Q: // same read-out, input: CCc1cc(C(=O)NC(C)C)nn1Cc1ccnc(C(F)(F)F)c1
A: 100

Q: What do you get for CCCc1cc(C(=O)NCC(F)(F)F)nn1Cc1ccnc(C(F)(F)F)c1 ?
A: 100

Q: Now the compound CCCNC(=O)c1cc(CCCl)n(Cc2ccnc(C(F)(F)F)c2)n1
A: 100

Q: Continue with CCc1cc(C(=O)NC2CC2)nn1Cc1ccnc(OCC(F)(F)F)c1
A: 100
